The reported measurements were obtained from PubChem BioAssay (NCI).

Test system: SF-539 CNS
measurement-protocol: NCI-60 one-dose screen, 48 h
measurement-setup: 10 µM unless noted
Method: Cells are grown in 96 well plates and exposed to the test compound for 48 hours. Compounds are tested at a single concentration, which is 10^-5 M for most compounds. The reported endpoint is percent growth (GI% or GIPRCNT), where numbers from 0 - 100% represent growth inhibition, and numbers from -100% - 0 represent cell death. For example, a value of 40 represents 60% growth inhibition. A value of 0 means no net growth occurred over the course of the experiment. […]
About 83,000 compounds went through this panel and 20% of them were active in at least one assay; those are over-represented in the sample as a whole. Calls of active or inactive are those of the source. Rule for the calls: active = growth percent below 10; inactive = the rest.
Pick one and only one: True for active, False for inactive

Consider the following illustrative entries.
N#Cc1ccccc1-c1ccc(Cn2c(-c3cscn3)nc3c(Cl)cccc32)cc1 ... False
CCOC(=O)C1=C(C)NC(=O)NC1c1c(Cl)n(-c2ccccc2)c2ccccc12 (stereo not given) ... False
COc1ccc(Cl)cc1Nc1nc(C(F)(F)F)ccc1C(=O)N/N=C/c1ccc(N(C)C)cc1 ... False
C=C1CCC2C3(C)COC(c4ccc(NC(C)=O)cc4)OC3CCC2(C)C1C/C=C1/C(=O)OCC1O (stereo not given) ... False

Now look at this entry.
For COc1ccc(/C=C2\COc3ccc(O)c(O)c3C2=O)c(OC)c1OC , what call appears in the results of this test?
True
